Provide the recorded IC50 for the entries that follow.
- Test system: HepG2
- ASSAY: Anticancer activity against human HepG2 cells after 72 hrs by MTT assay
- CONDITIONS: HepG2, 72 h
One number for each entry, in µg/mL.

The following compounds have reported results that may help.
- STRUCTURE STRING: "CCOC(=O)c1c2n(c(=N)c3c(F)c(C#N)c(F)c(Cl)c13)CCN2"
  VALUE: 1.5
- STRUCTURE STRING: "COc1ccc(C(=O)c2c3n(c(=N)c4c(F)c(C#N)c(F)c(F)c24)CCCN3)cc1"
  VALUE: 0.8
- STRUCTURE STRING: "N#Cc1c(F)c(F)c2c(C(=O)c3ccccc3)c3n(c(=N)c2c1F)CCN3"
  VALUE: 1.2
- STRUCTURE STRING: "COc1ccc(C(=O)c2c3n(c(=N)c4c(F)c(C#N)c(F)c(Cl)c24)CCCN3)cc1"
  VALUE: 0.8

// for each compound in input: emit IC50
1. CCOC(=O)c1c2n(c(=N)c3c(Cl)c(C#N)c(Cl)c(Cl)c13)CCN2
2. N#Cc1c(F)c(F)c2c(C(=O)c3ccccc3)c3n(c(=N)c2c1F)CCO3
3. COc1ccc(C(=O)c2c3n(c(=N)c4c(F)c(C#N)c(F)c(F)c24)CCO3)cc1
4. Cc1ccc(C(=O)c2c3n(c(=N)c4c(Cl)c(C#N)c(Cl)c(Cl)c24)CCCN3)cc1
5. COc1ccc(C(=O)c2c3n(c(=N)c4c(F)c(C#N)c(F)c(F)c24)CCN3)cc1

38.2
0.1
0.5
277
0.9

Please give IC50, item by item, for the list that follows.
1. CC(=O)c1c2n(c(=N)c3c(F)c(C#N)c(F)c(Cl)c13)CCN2
2. COc1ccc(C(=O)c2c3n(c(=N)c4c(F)c(C#N)c(F)c(Cl)c24)CCO3)cc1
3. N#Cc1c(F)c(Cl)c2c(C(=O)c3ccccc3)c3n(c(=N)c2c1F)CCN3
4. CCOC(=O)c1c2n(c(=N)c3c(F)c(C#N)c(F)c(F)c13)CCN2
5. N#Cc1c(F)c(Cl)c2c(C(=O)c3ccc(Cl)cc3)c3n(c(=N)c2c1F)CCN3
6. Cc1ccc(C(=O)c2c3n(c(=N)c4c(F)c(C#N)c(F)c(F)c24)CCCN3)cc1
7. COc1ccc(C(=O)c2c3n(c(=N)c4c(Cl)c(C#N)c(Cl)c(Cl)c24)CCCN3)cc1

1: 6.4; 2: 2; 3: 0.3; 4: 0.4; 5: 12.4; 6: 2.4; 7: 400

For each entry beneath this line, provide reported IC50.
1. N#Cc1c(F)c(F)c2c(C(=O)c3ccc(Cl)cc3)c3n(c(=N)c2c1F)CCN3
2. N#Cc1c(F)c(Cl)c2c(C(=O)c3ccccc3)c3n(c(=N)c2c1F)CCCN3
3. CC(=O)c1c2n(c(=N)c3c(Cl)c(C#N)c(Cl)c(Cl)c13)CCN2
4. N#Cc1c(F)c(Cl)c2c(C(=O)c3ccccc3)c3n(c(=N)c2c1F)CCO3

17.7
0.3
503
3.6

###

- ASSAY: Lipophilicity, log P of the compound
- Format: physicochemical
- CONDITIONS: octanol/water
REPORTED PROPERTY: logP
One number for each entry.

Count: 3. Required value per item: logP.
1. COc1ccc(C(=O)c2c3n(c(=N)c4c(Cl)c(C#N)c(Cl)c(Cl)c24)CCO3)cc1
2. N#Cc1c(Cl)c(Cl)c2c(C(=O)c3ccc(Cl)cc3)c3n(c(=N)c2c1Cl)CCCN3
3. N#Cc1c(F)c(F)c2c(C(=O)c3ccc(Cl)cc3)c3n(c(=N)c2c1F)CCN3

1: 3.39; 2: 4.84; 3: 3.36

Record logP for all entries; do not skip any.
1. Cc1ccc(C(=O)c2c3n(c(=N)c4c(F)c(C#N)c(F)c(F)c24)CCCN3)cc1
2. CC(=O)c1c2n(c(=N)c3c(Cl)c(C#N)c(Cl)c(Cl)c13)CCN2
3. N#Cc1c(Cl)c(Cl)c2c(C(=O)c3ccccc3)c3n(c(=N)c2c1Cl)CCO3

3.21
2.43
3.97
